test: Parent ionizable lipid remaining in liver at 6 h after luciferase mRNA LNP (LC-MS); assay type: in vivo; conditions: Table 17; 6 h after IV 0.5 mg/kg Luciferase mRNA LNP, female mice (n = 4)
Output Satisfied for records whose Parent ionizable lipid remaining in liver, Average is lower than 30 nmol/g liver, Not satisfied for records at or above 30 nmol/g liver.

>>> assigned_category("CCCCCCCCCCC(CCCCCCCC(=O)OCC(CCCCCC)CCCCCCCC)N(CCCCCCCCC(=O)OCC(CCCCCC)CCCCCCCC)C(=O)CCCCN(C)C (stereo not drawn)")
"Not satisfied"
>>> assigned_category("CCCCCCCCCCC(CCCCCCC(=O)OCCC(CCCCCCC)CCCCCCC)N(CCCCCCCC(=O)OCCC(CCCCCCC)CCCCCCC)C(=O)CCCN(C)C (stereo not drawn)")
"Satisfied"
>>> assigned_category("CCCCCCCCCCON(C(=O)CCCN(C)C)C(CCCCCCCCCC)CCCCCCC(=O)OCCC(CCCCC)CCCCC (stereo not drawn)")
"Satisfied"
>>> assigned_category("CCCCCCCCCCN(C(=O)CCCN(C)C)C(CCCCCCCCC)CCCCCCC(F)(F)C(=O)OCCC(CCCCCC)CCCCCC (stereo not drawn)")
"Satisfied"
>>> assigned_category("CCCCCCCCCCN(C(=O)CCCN(C)C)C(CCCCCCCCC)CCCCCCC(F)(F)C(=O)OCCC(CCCCCCC)CCCCCCC (stereo not drawn)")
"Satisfied"
>>> assigned_category("CCCCCCCCCCC(CCCCCCC(=O)OCC(CCCCCC)CCCCCCCC)N(OCCCCCCCCC)C(=O)CCCN(C)C (stereo not drawn)")
"Not satisfied"
>>> assigned_category("CCCCCCCCCCON(C(=O)CCCCN(C)C)C(CCCCCCCCCC)CCCCCCC(=O)OCC(CCCCCC)CCCCCCCC (stereo not drawn)")
"Not satisfied"
>>> assigned_category("CCCCCCCCCCC(CCCCCCCC(=O)OC(CCCCCC)CCCCCC)N(CCCCCCCCCC)C(=O)CCCN(C)C (stereo not drawn)")
"Not satisfied"
>>> assigned_category("CCCCCCCCCCC(CCCCCCCC(=O)OCCC(CCCCC)CCCCC)N(CCCCCCCCC(=O)OCCC(CCCCC)CCCCC)C(=O)CCCCN(C)C (stereo not drawn)")
"Satisfied"
>>> assigned_category("CCCCC/C=C\\CCCC(CCC/C=C\\CCCCC)C(CCC/C=C\\CCCCC)OC(=O)CCCCN(C)C (stereo not drawn) [Compound 13-B43, reference compound]")
"Not satisfied"
>>> assigned_category("CCCCCCCCCCN(C(=O)CCCN(C)C)C(CCCCCCCCC)CCCCCCC(F)(F)C(=O)OC(CCCCC)CCCCC (stereo not drawn)")
"Satisfied"
>>> assigned_category("CCCCCCCCCCC(CCCCCCC(=O)OCCC(CCCCCC)CCCCCC)N(CCCCCCCC(=O)OCCC(CCCCCC)CCCCCC)C(=O)CCCN(C)C (stereo not drawn)")
"Not satisfied"
>>> assigned_category("CCCCCCCCCCC(CCCCCCC(=O)OCC(CCCCCC)CCCCCCCC)N(CCCN(C)C)C(=O)CCCCCCC(=O)OCCC(CCCCCCC)CCCCCCC (stereo not drawn)")
"Not satisfied"
>>> assigned_category("CCCCCCCCCCC(CCCCCCC(=O)OCC(CCCCCC)CCCCCCCC)N(CCCN(C)C)C(=O)CCCCCCC(=O)OCCC(CCCCCC)CCCCCC (stereo not drawn)")
"Not satisfied"
>>> assigned_category("CCCCCCCCCCN(C(=O)CCCN(C)C)C(CCCCCCCCC)CCCCCCC(F)(F)C(=O)OCC(CCCCCC)CCCCCCCC (stereo not drawn)")
"Satisfied"

====

Experiment: Particle characteristics of LNPs containing EGFP mRNA and novel ionizable lipids
Type: physicochemical
Settings: Table 21; EGFP mRNA LNP 1.6:54.6:32.8:10.9
Experimental: The lipid solution contains 4 components: a PEG-conjugated lipid, an ionizable lipid, cholesterol, and a phospholipid (e.g., DSPC). Lipid stocks were prepared using the lipid identities and molar ratios as described, to achieve a total concentration of ˜7 mg/mL in 100% ethanol. […] Nucleic acid concentration was determined by the RiboGreen assay. Particle size and polydispersity were determined using a Malvern Nano Series Zetasizer. […]
endpoint: Final Product % EE (%)

>>> numeric_readout("CCCCCCCCCCN(C(=O)CCCN(C)C)C(CCCCCCCCC)CCCCC(F)(F)C(=O)OC(CCCCCCC)CCCCCCC (stereo not shown) [Compound 101]")
100
>>> numeric_readout("CCCCCCCCCCON(C(=O)CCCCN(C)C)C(CCCCCCCCCC)CCCCCCC(=O)OCCC(CCCCCCC)CCCCCCC (stereo not shown) [Compound 99]")
97
>>> numeric_readout("CCCCCC/C=C\\CCON(C(=O)CCCCN(C)C)C(CCCCCCCCCC)CCCCCCC(=O)OCCC(CCCCCCC)CCCCCCC (stereo not shown) [Compound 98]")
99
>>> numeric_readout("CCCCCCCCCCON(C(=O)CCCCN(C)C)C(CCCCCCCCCC)CCCCCCC(=O)OCCC(CCCCCC)CCCCCC (stereo not shown) [Compound 97]")
99
>>> numeric_readout("CCCCCCCCCCN(C(=O)CCCN(C)C)C(CCCCCCCCC)CCCCCCC(F)(F)C(=O)OC(CCCCCC)CCCCCC (stereo not shown) [Compound 92]")
99
>>> numeric_readout("CCCCCCCCCCN(C(=O)CCCN(C)C)C(CCCCCCCCC)CCCCC(F)(F)C(=O)OCCC(CCCCCC)CCCCCC (stereo not shown) [Compound 103]")
98
>>> numeric_readout("CCCCCCCCCCON(C(=O)CCCCN(C)C)C(CCCCCCCCCC)CCCCCCC(=O)OCCC(CCCCC)CCCCC (stereo not shown) [Compound 95]")
96

====

test: Particle characteristics of LNPs containing EGFP mRNA and novel ionizable lipids; type: physicochemical; conditions: Table 23; EGFP mRNA LNP 1.6:54.6:32.8:10.9
Below, each of the compounds is paired with its reported Final Product Z-avg value.
endpoint: Final Product Z-avg

>>> result("CCCCCCCCCCN(C(=O)CCCN(C)C)C(CCCCCCCCC)CCCCC(F)C(=O)OCC(CCCCCC)CCCCCCCC (centres unmarked) [Compound 120]")
"69 nm"
>>> result("CCCCCCCCCCN(C(=O)CCCN(C)C)C(CCCCCCCCC)CCCCC(F)C(=O)OC(CCCCCC)CCCCCC (centres unmarked) [Compound 121]")
"77 nm"
>>> result("CCCCC/C=C\\CCCC(CCC/C=C\\CCCCC)C(CCC/C=C\\CCCCC)OC(=O)CCCCN(C)C (centres unmarked) [Compound 13-B43, reference compound]")
"76 nm"
>>> result("CCCCCCCCCCN(C(=O)CCCN(C)C)C(CCCCCCCCC)CCCCC(F)C(=O)OC(CCCCCCC)CCCCCCC (centres unmarked) [Compound 122]")
"70 nm"
>>> result("CCCCCCCCCCN(C(=O)CCCN(C)C)C(CCCCCCCCC)CCCCC(F)C(=O)OC(CCCCCCCC)CCCCCCCC (centres unmarked) [Compound 123]")
"73 nm"

====

assay: Particle characteristics of LNPs containing luciferase mRNA and novel ionizable lipids; assay type: physicochemical; details: Table 5; luciferase mRNA LNP 1.6:54.6:32.8:10.9
endpoint: Final Product Z-avg

>>> result("CCCCCCCCCCON(C(=O)CCCN(C)C)C(CCCCCCCCCC)CCCCCC(=O)OCC(CCCCCC)CCCCCCCC (stereo not shown) [Compound 44]")
"68 nm"
>>> result("CCCCCCCCCCC(CCCCCCC(=O)OCC(CCCCCC)CCCCCCCC)N(OCCCN(C)C)C(=O)CCCCCCC(=O)OCC(CCCC)CCCCCC (stereo not shown) [Compound 41]")
"70 nm"
>>> result("CCCCCCCCCCC(CCCCCC(=O)OCC(CCCCCC)CCCCCCCC)N(CCCN(C)C)C(=O)CCCCCCC(=O)OCC(CCCC)CCCCCC (stereo not shown) [Compound 29]")
"80 nm"
>>> result("CCCCCCCCCCC(CCCCCCC(=O)OCC(CCCCCC)CCCCCCCC)N(CCCCCCCCCC)C(=O)CCCN(C)C (stereo not shown) [Compound 1]")
"77 nm"
>>> result("CCCCCCCCCCC(CCCCC(=O)OCC(CCCCCC)CCCCCCCC)N(CCCCCCCCCC)C(=O)CCCN(C)C (stereo not shown) [Compound 2]")
"81 nm"
>>> result("CCCCC/C=C\\CCCC(CCC/C=C\\CCCCC)C(CCC/C=C\\CCCCC)OC(=O)CCCCN(C)C (stereo not shown) [Compound 13-B43, reference compound]")
"69 nm"
>>> result("CCCCCCCCCCC(CCCCCC(=O)OCC(CCCCCC)CCCCCCCC)N(OCCCN(C)C)C(=O)CCCCCCCCC (stereo not shown) [Compound 42]")
"65 nm"

====

test: Particle characteristics of LNPs containing luciferase mRNA and novel ionizable lipids; type: physicochemical; conditions: Table 5; luciferase mRNA LNP 1.6:54.6:32.8:10.9
I'd appreciate it if you marked entries t when Final Product PDI is lower than 0.06 and f when it is not.

>>> assigned_category("CCCCCCCCCCC(CCCCCCC(=O)OCC(CCCCCC)CCCCCCCC)N(OCCCN(C)C)C(=O)CCCCCCC(=O)OCC(CCCC)CCCCCC (stereo not shown) [Compound 41]")
"t"
>>> assigned_category("CCCCCCCCCCC(CCCCC(=O)OCC(CCCCCC)CCCCCCCC)N(CCCCCCCCCC)C(=O)CCCN(C)C (stereo not shown) [Compound 2]")
"f"
>>> assigned_category("CCCCCCCCCCC(CCCCCC(=O)OCC(CCCCCC)CCCCCCCC)N(OCCCN(C)C)C(=O)CCCCCCCCC (stereo not shown) [Compound 42]")
"f"
>>> assigned_category("CCCCCCCCCCC(CCCCCC(=O)OCC(CCCCCC)CCCCCCCC)N(CCCN(C)C)C(=O)CCCCCCC(=O)OCC(CCCC)CCCCCC (stereo not shown) [Compound 29]")
"t"
>>> assigned_category("CCCCCCCCCCC(CCCCCCC(=O)OCC(CCCCCC)CCCCCCCC)N(CCCCCCCCCC)C(=O)CCCN(C)C (stereo not shown) [Compound 1]")
"t"
